Cited source: paper PMC4195943

protocol_text: Caco-2 permeability
Type: in vitro ADME
condition_context: human
endpoint_label: Papp

Q. Need Papp of O=C(Nc1cn[nH]c1-c1ccccn1)c1nn(C2CCNCC2)cc1Cl , thanks.
A. 0.171 ×10⁻⁶ cm/s

* * *

protocol_text: logD
Type: physicochemical
endpoint_label: logD

Q. Need logD of O=C(Nc1cn[nH]c1-c1ccccn1)c1nn(C2CCNCC2)cc1Cl , thanks.
A. 0.786

* * *

subject_of_test: MRCKβ (Homo sapiens, UniProt Q9Y5S2)
Construct: purchased Life Technologies
Sequence (Q9Y5S2 whole entry): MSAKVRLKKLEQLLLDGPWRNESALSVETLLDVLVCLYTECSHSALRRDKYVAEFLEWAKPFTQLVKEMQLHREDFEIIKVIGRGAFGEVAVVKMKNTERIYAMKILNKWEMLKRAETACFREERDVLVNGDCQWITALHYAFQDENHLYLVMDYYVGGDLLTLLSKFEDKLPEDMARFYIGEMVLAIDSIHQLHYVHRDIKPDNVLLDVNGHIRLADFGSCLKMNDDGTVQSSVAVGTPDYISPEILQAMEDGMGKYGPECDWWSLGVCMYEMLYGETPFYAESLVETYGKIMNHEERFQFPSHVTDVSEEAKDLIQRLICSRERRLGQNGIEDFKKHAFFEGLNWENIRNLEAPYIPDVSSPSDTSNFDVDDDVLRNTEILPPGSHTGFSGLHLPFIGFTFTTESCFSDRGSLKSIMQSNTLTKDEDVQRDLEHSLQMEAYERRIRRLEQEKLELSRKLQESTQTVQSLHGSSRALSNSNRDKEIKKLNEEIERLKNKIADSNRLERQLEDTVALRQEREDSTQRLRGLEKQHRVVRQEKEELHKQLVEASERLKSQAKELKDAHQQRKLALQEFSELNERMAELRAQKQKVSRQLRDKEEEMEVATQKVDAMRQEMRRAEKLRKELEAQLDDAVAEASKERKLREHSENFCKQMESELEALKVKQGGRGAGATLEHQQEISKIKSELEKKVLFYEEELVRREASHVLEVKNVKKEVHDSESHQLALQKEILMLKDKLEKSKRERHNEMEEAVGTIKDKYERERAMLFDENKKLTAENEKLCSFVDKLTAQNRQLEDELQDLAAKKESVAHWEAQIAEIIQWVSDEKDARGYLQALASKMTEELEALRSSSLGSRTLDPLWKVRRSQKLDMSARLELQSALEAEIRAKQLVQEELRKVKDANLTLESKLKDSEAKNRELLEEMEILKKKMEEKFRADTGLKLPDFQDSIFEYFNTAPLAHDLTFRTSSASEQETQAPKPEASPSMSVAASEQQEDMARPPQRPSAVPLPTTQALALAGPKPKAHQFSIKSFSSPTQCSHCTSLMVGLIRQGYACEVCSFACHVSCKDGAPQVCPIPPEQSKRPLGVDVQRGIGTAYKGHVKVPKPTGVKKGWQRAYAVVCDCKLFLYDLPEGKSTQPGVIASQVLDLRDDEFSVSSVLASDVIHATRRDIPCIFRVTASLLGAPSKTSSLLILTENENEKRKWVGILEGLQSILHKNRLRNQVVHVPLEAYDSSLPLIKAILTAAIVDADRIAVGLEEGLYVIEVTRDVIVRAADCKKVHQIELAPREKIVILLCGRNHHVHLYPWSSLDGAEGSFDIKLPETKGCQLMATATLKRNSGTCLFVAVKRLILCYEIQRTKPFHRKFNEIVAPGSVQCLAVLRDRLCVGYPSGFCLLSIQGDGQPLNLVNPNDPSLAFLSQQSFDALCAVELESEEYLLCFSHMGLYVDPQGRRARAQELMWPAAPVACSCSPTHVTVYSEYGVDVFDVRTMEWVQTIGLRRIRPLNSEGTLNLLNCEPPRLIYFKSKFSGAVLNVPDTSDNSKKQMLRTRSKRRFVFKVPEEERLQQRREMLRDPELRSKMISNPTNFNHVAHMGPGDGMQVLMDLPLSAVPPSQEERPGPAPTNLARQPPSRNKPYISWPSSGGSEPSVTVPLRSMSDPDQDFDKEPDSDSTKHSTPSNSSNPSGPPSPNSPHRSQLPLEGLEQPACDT
protocol_text: IMAP fluorescence polarization kinase assay, MRCKβ
Format: biochemical
condition_context: in vitro, 1 μM ATP
Procedure: MRCKα, MRCKβ, ROCK1 and ROCK2 assays were performed using an IMAP fluorescence polarization assay format (Molecular Devices Inc.). […] After 30 min incubation to allow binding reagent to bind phosphorylated peptide, fluorescence polarization was measured on a Tecan Saphire^2 plate reader at excitation (470 nm) and emission (530 nm) wavelengths. […]
endpoint_label: pIC50
Remember the convention: pIC50 equals -log10 of concentration in molar.

Q. Need pIC50 of C[C@@H](N)[C@H]1CC[C@H](C(=O)Nc2ccncc2)CC1 [Y27632, reference compound] , thanks.
A. 5.84
